Target: Mushroom tyrosinase (Agaricus bisporus, UniProt C7FF04)
Sequence (G1K3P4 entry or part of it): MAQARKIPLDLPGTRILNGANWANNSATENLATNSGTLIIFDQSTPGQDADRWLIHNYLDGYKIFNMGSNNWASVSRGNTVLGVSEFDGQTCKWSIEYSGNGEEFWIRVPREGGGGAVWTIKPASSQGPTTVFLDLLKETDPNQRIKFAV
Sequence (C7FF04 1-392): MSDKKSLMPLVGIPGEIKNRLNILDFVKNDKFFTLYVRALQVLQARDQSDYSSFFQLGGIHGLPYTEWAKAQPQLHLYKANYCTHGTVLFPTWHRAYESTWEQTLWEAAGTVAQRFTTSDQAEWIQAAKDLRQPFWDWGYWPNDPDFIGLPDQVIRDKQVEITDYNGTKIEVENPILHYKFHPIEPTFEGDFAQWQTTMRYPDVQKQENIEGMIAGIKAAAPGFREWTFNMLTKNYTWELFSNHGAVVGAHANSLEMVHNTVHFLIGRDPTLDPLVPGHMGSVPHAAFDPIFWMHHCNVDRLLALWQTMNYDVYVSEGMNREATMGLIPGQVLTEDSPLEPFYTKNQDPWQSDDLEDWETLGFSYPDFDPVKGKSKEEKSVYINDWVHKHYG
Assay: Tyrosinase inhibitory activity with L-DOPA as substrate
Format: biochemical
Conditions: pH 6.8, room temperature, absorbance at 475 nm for 60 seconds, read-out: IC50 for tyrosinase inhibition
Procedure: Tyrosinase inhibitory activity of a peptide can be evaluated by a known method using tyrosinase and its substrate such as L-dihydroxyphenylalanine (L-DOPA) or L-tyrosine. Specific examples of the evaluation method are described in the Examples below. For example, a peptide whose tyrosinase inhibitory activity should be measured, tyrosinase, and its substrate are dissolved in phosphate buffer, respectively (the peptide and tyrosinase may be dissolved in the same solution). […]
measure name: IC50 (µM)
Report as a plain number; the unit µM is understood.

Prompt: Request: IC50, test system Mushroom tyrosinase (Agaricus bisporus, UniProt C7FF04), entry Mim-Pro-His-His [Sample 1]
Completion: 16.4
